Please provide measured composite z-score for the entries that follow.
Subject of test: Torsin-1A-interacting protein 2 (Homo sapiens)
Test description: LULL1 binders on small-molecule microarray, primary screen, cell lysate, human LULL1 lysate, 635/667 nm fluorescence (AID 1092);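 also: probe is lysate of COS7 cells overexpressing human LULL1; score merges per-feature 667 nm fluorescence with signal-to-noise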
Details: hLULL1 lysate binding, 635 nm fluorescence, higher = more signal

# annotated cases, reported composite z-score shown
[Q] Quick one: give measured composite z-score for Cc1cc2c(nc1C)CCCCN2CC(C)ON=C1[C@H]2CCn3c(=O)n(-c4ccccc4)c(=O)n3[C@H]2[C@H](O)[C@@H]2O[C@H]12 (some centres not stated)
[A] 0.998

[Q] Quick one: give measured composite z-score for CC(CCN1CCCCc2nc(C)c(C)cc21)=NO[C@H](C)c1cn([C@H](CO)Cc2ccccc2)nn1
[A] 0.592

[Q] Quick one: give measured composite z-score for CC(C)(C)N1C(=O)[C@H]2[C@H]3[C@H](O)[C@H](O)CC(=O)[C@@H]3CC[C@H]2C1=O
[A] -0.26

Dear colleague, could you send me composite z-score for each of the items below? Thanks.
1. C[C@@H](c1ccccc1)N1C(=O)[C@H]2[C@H]3[C@H](O)[C@H](O)CC(=NO[C@@H]4O[C@H](CO)[C@@H](O)[C@H](O)[C@H]4O)[C@@H]3CC[C@H]2C1=O
2. CCOC(=O)[C@H](CC(C)C)NC(=O)CCC1CC(OC(=O)NCCc2ccc(F)cc2)CC2(CCCC(COC(=O)NCC(c3ccccc3)c3ccccc3)O2)O1 (some centres not stated)
3. Cc1ccc(S(=O)(=O)OC[C@H]2CN3[C@H](c4ccc(Br)cc4)[C@@H](C)CC[C@H]3C(=O)O2)cc1
4. O=C(NN=C1C[C@@H](O)[C@@H](O)[C@@H]2[C@@H]3C(=O)N(C4CCCCC4)C(=O)[C@@H]3CC[C@@H]12)OCc1ccccc1

[A]
1. 0.652
2. 2.59
3. 1.3
4. -0.181

Every entry's value here was drawn from PubChem BioAssay.
